tested on: SF-268 CNS; assay: NCI tumour cell line growth inhibition, 48 h
Form field: TGI (one value per entry).

O=[P@@]1(c2ccccc2)O[C@H](COCc2ccccc2)[C@@H](OCc2ccccc2)[C@H](OCc2ccccc2)[C@H]1NCc1ccccc1: > 100 µM
COC1CCCCN1C(=O)c1ccccc1 (stereo unspecified): > 25.3 µM
CCOC(=O)/C=C(/C(=O)OCC)n1cnc2c(=O)[nH]c(NC(C)=O)nc21: > 100 µM
FC(F)(F)c1ccc2c(c1)nc(-c1ccc(Cl)cc1)n2CC1CCCN2CCCCC12 (stereo unspecified): 27.5 µM

Now consider the entry below.
Provide only the value of recorded TGI for `CCSC1=N/C(=C\c2ccc(N(C)C)cc2)C(Cl)=N1`
> 100 µM
